# experiment: Determination of log P values by HPLC on reversed-phase column (formic acid method)
# Format: physicochemical
# condition-label: reversed-phase HPLC column (C 18), pH 3.4, HPLC, reversed-phase C 18, acidic range (pH 3.4), formic acid eluents, 55° C.; read-out: logP (HCOOH)
# Procedure: 1) Description of Method for Determining the Log P Values (Formic Acid Method) The log P values reported in the table were determined according to EEC-Directive 79/831 Annex V.A8 by HPLC (High Performance Liquid Chromatography) on a reversed-phase column (C 18). […] Eluent A: acetonitrile+1 ml of formic acid/liter. Eluent B: water+0.9 ml of formic acid/liter. Gradient: from 10% eluent A/90% eluent B to 95% eluent A/5% eluent B in 4.25 min […]
result-type: chromatographic logP

# molecule, reading
records = [
    ("Cc1nc(-c2cccnc2)sc1C(=O)NCc1ccncn1", 0.9),
    ("Cc1nc(CNC(=O)c2cc(-c3cccnc3)nn2C)no1", 0.54),
    ("CCOC(=O)C(CC)N(C)C(=O)c1sc(-c2cccnc2)nc1C (stereo not drawn)", 2.1),
    ("CCC(=O)N(CC#N)C(=O)c1cnc(-c2cccnc2)s1", 1.77),
    ("Cc1cc(C)nc(CNC(=O)c2sc(-c3cccnc3)nc2C)n1", 1.24),
    ("O=C(NCc1ccccn1)c1cnc(-c2cccnc2)s1", 0.61),
]

###

Quick reference: chromatographic logP of the listed items.
# experiment: Determination of log P values by HPLC on reversed-phase column (formic acid method)
# Assay type: physicochemical
# condition-label: reversed-phase HPLC column (C 18), pH 3.4, HPLC, reversed-phase C 18, acidic range (pH 3.4), formic acid eluents, 55° C.; read-out: logP (HCOOH)

# compound, chromatographic logP
measured = [
    ("Cn1nc(-c2cncc(F)c2)cc1C(=O)NCc1ncccn1", 1.24),
    ("Cn1nc(-c2cccnc2)cc1C(=O)NCC(F)F", 0.65),
    ("Cc1nc(-c2cccnc2)sc1C(=O)N[C@H]1C[C@@H]1F", 1.16),
    ("C=CC[n+]1cccc(-c2nc(C)c(C(=O)NCC(F)(F)F)s2)c1", 1.13),
    ("CCON(C)C(=O)c1cnc(-c2cccnc2)s1", 1.5),
    ("COCN(CC(F)(F)F)C(=O)c1sc(-c2cccnc2)nc1C", 2.06),
    ("CCNC(=O)c1cnc(-c2cccnc2)s1", 1.03),
    ("CCOC1(NC(=O)c2sc(-c3cccnc3)nc2C)CC1", 1.45),
    ("Cc1nc(-c2cccnc2)sc1C(=O)NCC1(C)CCCO1 (centres unmarked)", 1.27),
    ("O=C(NC(C(F)(F)F)C(F)(F)F)c1cnc(-c2cccnc2)s1", 2.3),
    ("Cc1ccc(CNC(=O)c2cnc(-c3cccnc3)s2)o1", 1.77),
]

###

# experiment: Determination of log P values by HPLC on reversed-phase column (formic acid method)
# Assay type: physicochemical
# condition-label: reversed-phase HPLC column (C 18), pH 3.4, HPLC, reversed-phase C 18, acidic range (pH 3.4), formic acid eluents, 55° C.; read-out: logP (HCOOH)

# compound, chromatographic logP
records = [
    ("Cc1nc(-c2cccnc2)sc1C(=O)NCC(Cl)(Cl)Cl [Compound 100]", 2.17),
    ("CN(Cc1ccccn1)C(=O)c1cnc(-c2cccnc2)s1 [Compound 134]", 0.41),
    ("Cc1nc(-c2cccnc2)sc1C(=O)N(CC(F)(F)F)C(=O)C1(F)CC1 [Compound 58]", 2.77),
    ("Cc1nc(-c2cncnc2)sc1C(=O)NCC(F)(F)F [Preparation Example 5]", 1.61),
    ("Cc1nc(-c2cccnc2)sc1C(=S)NCC(F)(F)F [Preparation Example 4]", 2.39),
    ("Cc1nc(-c2cccnc2)sc1C(=O)NN1CCOC1=O [Compound 204]", 1.11),
    ("CCC1(CC)NC(=O)N(NC(=O)c2sc(-c3cccnc3)nc2C)C1=O [Compound 199]", 1.44),
    ("CCN(CC1CCCO1)C(=O)c1sc(-c2cccnc2)nc1C (centres unmarked) [Compound 187]", 1.64),
    ("Cc1nc(CNC(=O)c2sc(-c3cccnc3)nc2C)no1 [Compound 38]", 1.21),
    ("Cc1nc(-c2cccnc2)sc1C(=O)N(C)Cc1ncccn1 [Compound 91]", 1.02),
    ("Cc1nc(-c2cccnc2)sc1C(=O)NCC(C)(F)F [Compound 36]", 1.59),
]
